target: GP IIb/IIIa (Homo sapiens, UniProt P05106+P08514); assay: Fibrinogen-GP IIbIIIa Receptor ELISA Binding Assay (GP IIb/IIIa); conditions: read-out: GP IIb/IIla IC50
Sequence (P08514 32-887 limits assumed, one chain of several): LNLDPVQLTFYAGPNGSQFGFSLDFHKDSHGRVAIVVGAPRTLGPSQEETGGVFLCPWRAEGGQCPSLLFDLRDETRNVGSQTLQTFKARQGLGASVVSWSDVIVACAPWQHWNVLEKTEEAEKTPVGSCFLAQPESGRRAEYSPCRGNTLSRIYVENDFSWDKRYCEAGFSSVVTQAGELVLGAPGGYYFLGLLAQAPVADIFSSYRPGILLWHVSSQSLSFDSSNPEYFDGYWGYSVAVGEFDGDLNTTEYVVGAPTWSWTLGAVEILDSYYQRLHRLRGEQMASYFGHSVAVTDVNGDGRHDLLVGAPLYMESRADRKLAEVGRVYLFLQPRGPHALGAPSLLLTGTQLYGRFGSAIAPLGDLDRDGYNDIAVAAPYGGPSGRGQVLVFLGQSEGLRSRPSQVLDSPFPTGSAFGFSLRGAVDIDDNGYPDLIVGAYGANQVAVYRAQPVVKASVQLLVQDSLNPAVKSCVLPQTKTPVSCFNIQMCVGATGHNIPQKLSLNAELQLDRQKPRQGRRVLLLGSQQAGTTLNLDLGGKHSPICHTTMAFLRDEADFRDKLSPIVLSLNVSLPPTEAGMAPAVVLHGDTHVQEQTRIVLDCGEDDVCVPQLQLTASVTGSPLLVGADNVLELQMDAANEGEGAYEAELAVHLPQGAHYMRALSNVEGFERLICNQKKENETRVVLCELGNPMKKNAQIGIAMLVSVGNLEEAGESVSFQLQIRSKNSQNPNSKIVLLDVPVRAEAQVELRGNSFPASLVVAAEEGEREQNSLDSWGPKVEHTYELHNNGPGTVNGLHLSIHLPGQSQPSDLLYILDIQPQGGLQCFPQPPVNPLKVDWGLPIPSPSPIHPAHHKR
Sequence (P08514 891-1039 partner limits assumed, one chain of several): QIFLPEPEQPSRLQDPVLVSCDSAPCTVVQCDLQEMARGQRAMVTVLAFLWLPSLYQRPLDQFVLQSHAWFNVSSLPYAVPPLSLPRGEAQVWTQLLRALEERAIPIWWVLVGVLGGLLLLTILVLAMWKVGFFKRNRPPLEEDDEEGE
quantity-measured: pIC50
# reply with the number alone; pIC50 is -log10 of concentration in mol/L

Previously resolved entries follow.
| chemical-smiles | pIC50 |
| --- | --- |
| CCCCS(=O)(=O)N[C@@H](Cc1ccc(OCCCC(=O)NC2=NCCCN2)cc1)C(=O)O | 5.68 |
| O=C(CCCOc1ccc(C[C@H](NS(=O)(=O)c2cccc3ccccc23)C(=O)O)cc1)NC1=NCCCN1 | 6.28 |
| O=C(CCCOc1ccc(C[C@H](NS(=O)(=O)c2ccc(Br)cc2)C(=O)O)cc1)NC1=NCCCN1 | 6.02 |
| O=C(CCCOc1ccc(C[C@H](NS(=O)(=O)c2ccccc2)C(=O)O)cc1)NC1=NCCCN1 | 6.39 |
| O=C(CCCOc1ccc(C[C@H](NS(=O)(=O)c2ccc3ccccc3c2)C(=O)O)cc1)NC1=NCCCN1 | 6.59 |
| CCCCCCCCS(=O)(=O)N[C@@H](Cc1ccc(OCCCC(=O)NC2=NCCCN2)cc1)C(=O)O | 5.62 |

Could you now consider this next compound?
Please look up its pIC50: `Cc1ccc(S(=O)(=O)N[C@@H](Cc2ccc(OCCCC(=O)NC3=NCCCN3)cc2)C(=O)O)cc1` 6.14

---

Molecular target: human vitronectin receptor αvβ3 (Homo sapiens, UniProt P05106+P06756)
Construct: Human vitronectin receptor was obtained from the human placenta
Sequence (P06756 31-889 limits assumed): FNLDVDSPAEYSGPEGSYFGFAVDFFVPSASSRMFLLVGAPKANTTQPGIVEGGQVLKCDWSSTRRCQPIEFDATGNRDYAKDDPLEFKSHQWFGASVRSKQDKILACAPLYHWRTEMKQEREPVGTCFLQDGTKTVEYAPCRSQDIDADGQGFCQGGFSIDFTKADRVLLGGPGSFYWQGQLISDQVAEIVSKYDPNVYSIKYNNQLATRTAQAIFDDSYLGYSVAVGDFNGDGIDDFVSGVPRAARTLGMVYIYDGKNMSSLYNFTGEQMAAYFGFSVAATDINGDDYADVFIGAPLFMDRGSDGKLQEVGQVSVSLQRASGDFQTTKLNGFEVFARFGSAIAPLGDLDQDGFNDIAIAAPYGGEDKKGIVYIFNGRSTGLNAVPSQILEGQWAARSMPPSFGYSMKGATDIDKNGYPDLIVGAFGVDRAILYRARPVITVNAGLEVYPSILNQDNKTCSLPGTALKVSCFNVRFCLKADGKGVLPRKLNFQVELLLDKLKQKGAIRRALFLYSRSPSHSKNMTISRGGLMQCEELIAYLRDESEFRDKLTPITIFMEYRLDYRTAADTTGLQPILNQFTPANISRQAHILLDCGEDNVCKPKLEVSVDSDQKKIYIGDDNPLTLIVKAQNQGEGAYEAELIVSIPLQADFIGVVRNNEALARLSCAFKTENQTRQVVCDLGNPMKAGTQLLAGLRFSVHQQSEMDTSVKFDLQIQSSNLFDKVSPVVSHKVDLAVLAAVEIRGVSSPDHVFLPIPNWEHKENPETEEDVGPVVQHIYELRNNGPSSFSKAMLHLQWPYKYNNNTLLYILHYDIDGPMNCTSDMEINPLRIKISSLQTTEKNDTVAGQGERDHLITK
Sequence (P06756 891-1048 partner limits assumed): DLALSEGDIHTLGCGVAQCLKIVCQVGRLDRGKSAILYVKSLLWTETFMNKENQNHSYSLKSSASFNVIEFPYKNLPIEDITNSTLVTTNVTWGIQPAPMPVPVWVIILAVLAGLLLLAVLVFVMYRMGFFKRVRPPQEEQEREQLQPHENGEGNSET
Sequence (P05106 27-788): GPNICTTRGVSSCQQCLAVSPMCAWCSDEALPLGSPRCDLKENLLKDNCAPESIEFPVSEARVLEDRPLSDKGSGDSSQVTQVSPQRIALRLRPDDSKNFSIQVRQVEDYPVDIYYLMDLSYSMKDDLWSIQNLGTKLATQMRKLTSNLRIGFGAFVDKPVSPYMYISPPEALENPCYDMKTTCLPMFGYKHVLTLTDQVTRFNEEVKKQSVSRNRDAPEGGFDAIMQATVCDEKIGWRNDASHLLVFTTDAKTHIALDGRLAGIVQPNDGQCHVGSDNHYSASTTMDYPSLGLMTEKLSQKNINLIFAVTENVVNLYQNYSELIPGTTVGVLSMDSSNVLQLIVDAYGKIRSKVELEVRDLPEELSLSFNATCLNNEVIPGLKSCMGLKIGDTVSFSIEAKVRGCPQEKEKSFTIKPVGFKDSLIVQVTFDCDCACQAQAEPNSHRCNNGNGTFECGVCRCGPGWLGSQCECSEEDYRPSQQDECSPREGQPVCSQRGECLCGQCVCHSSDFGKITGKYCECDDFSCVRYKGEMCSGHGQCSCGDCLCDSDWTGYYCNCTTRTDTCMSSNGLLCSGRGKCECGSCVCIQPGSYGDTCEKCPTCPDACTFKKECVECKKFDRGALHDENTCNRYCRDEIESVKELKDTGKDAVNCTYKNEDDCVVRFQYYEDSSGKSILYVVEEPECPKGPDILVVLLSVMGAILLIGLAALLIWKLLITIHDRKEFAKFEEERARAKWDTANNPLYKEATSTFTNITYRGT
Experiment: Inhibition of the binding of kistrin to human vitronectin receptor (αvβ3 ELISA Test, K/VnR)
Text: The inhibition of the binding of kistrin to human vitronectin receptor (VnR) described below is a test method by which, for example, the antagonistic action of the compounds according to the invention on the vitronectin receptor αvβ3 can be determined (αvβ3 ELISA Test; the test method is abbreviated as “K/VnR” in the listing of the test results). […] The ability of substances to inhibit the binding of kistrin to the vitronectin receptor can be determined using an ELISA test. […]
quantity-measured: IC50 (nM)
The response must be a number in nM with no trailing unit.

Previously resolved entries follow.
| compound | IC50, nM |
| --- | --- |
| O=C(CCCOc1ccc(C[C@H](NS(=O)(=O)c2cccs2)C(=O)O)cc1)NC1=NCCCN1 [Example 8] | 2.5 |
| O=C(CCCOc1ccc(C[C@H](NS(=O)(=O)c2ccc(Cl)cc2)C(=O)O)cc1)NC1=NCCCN1 [Example 3] | 3 |
| CCCCS(=O)(=O)N[C@@H](Cc1ccc(OCCCC(=O)NC2=NCCCN2)cc1)C(=O)O [Example 9] | 5.3 |
| O=C(CCCOc1ccc(C[C@H](NS(=O)(=O)c2ccc(Br)cc2)C(=O)O)cc1)NC1=NCCCN1 [Example 7] | 3.5 |
| CCCCCCCCS(=O)(=O)N[C@@H](Cc1ccc(OCCCC(=O)NC2=NCCCN2)cc1)C(=O)O [Example 10] | 7.6 |

Please look up its IC50: O=C(CCCOc1ccc(C[C@H](NS(=O)(=O)c2ccc(C(F)(F)F)cc2)C(=O)O)cc1)NC1=NCCCN1 [Example 5] 3.5

Same for O=C(CCCOc1ccc(C[C@H](NS(=O)(=O)c2ccccc2)C(=O)O)cc1)NC1=NCCCN1 [Example 4] 2.8

Same for O=C(CCCOc1ccc(C[C@H](NS(=O)(=O)c2cccc3ccccc23)C(=O)O)cc1)NC1=NCCCN1 [Example 2] 2.7

Same for O=C(CCCOc1ccc(C[C@H](NS(=O)(=O)c2ccc3ccccc3c2)C(=O)O)cc1)NC1=NCCCN1 [Example 1] 7.5

Same for Cc1ccc(S(=O)(=O)N[C@@H](Cc2ccc(OCCCC(=O)NC3=NCCCN3)cc2)C(=O)O)cc1 [Example 6] 2.8
